Target: Mu-type opioid receptor (Homo sapiens)
Sequence (P35372 whole entry): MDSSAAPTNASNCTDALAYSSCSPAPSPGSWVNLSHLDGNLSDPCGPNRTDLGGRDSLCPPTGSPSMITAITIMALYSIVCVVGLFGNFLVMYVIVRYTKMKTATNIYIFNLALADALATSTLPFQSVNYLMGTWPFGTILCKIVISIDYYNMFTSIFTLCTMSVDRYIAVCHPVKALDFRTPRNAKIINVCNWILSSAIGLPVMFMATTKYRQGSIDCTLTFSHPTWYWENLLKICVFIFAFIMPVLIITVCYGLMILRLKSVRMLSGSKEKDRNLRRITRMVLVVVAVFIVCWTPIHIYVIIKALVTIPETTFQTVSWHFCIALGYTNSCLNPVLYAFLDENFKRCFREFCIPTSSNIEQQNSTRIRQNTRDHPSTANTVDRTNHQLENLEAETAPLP
Experiment: Agonist activity at human mu-opioid receptor stably expressed in CHO cells assessed as inhibition of forskolin-induced cAMP accumulation at 30 uM preincubated with compound for 10 mins followed by forskolin induction and measured after 30 mins by LANCE Ultra cAMP assay relative to control
Assay type: functional, cell-based
Conditions: filed as agonist, time 40.0 min

>  <structureSmiles>
CCN1CC[C@@]23CCCC[C@@H]2[C@@H]1Cc1ccccc13

>  <assayedTarget>
Mu-type opioid receptor (Homo sapiens)

>  <readoutUnits>
%

>  <inhibition>
40

$$$$
>  <structureSmiles>
CC(=O)c1ccc2c(c1)[C@]13CCCC[C@@H]1[C@H](C2)N(C)CC3

>  <assayedTarget>
Mu-type opioid receptor (Homo sapiens)

>  <readoutUnits>
%

>  <inhibition>
87

$$$$
>  <structureSmiles>
CN1CC[C@@]23CCCC[C@@H]2[C@@H]1Cc1ccc(C(=O)NC2CC2)cc13

>  <assayedTarget>
Mu-type opioid receptor (Homo sapiens)

>  <readoutUnits>
%

>  <inhibition>
60

$$$$
>  <structureSmiles>
COC(=O)c1ccc2c(c1)[C@]13CCCC[C@@H]1[C@H](C2)N(C)CC3

>  <assayedTarget>
Mu-type opioid receptor (Homo sapiens)

>  <readoutUnits>
%

>  <inhibition>
88

$$$$
>  <structureSmiles>
c1ccc2c(c1)C[C@@H]1NCC[C@]23CCCC[C@H]13

>  <assayedTarget>
Mu-type opioid receptor (Homo sapiens)

>  <readoutUnits>
%

>  <inhibition>
95

$$$$
